Where these numbers come from: PubChem BioAssay

target: E3 ubiquitin-protein ligase XIAP (Homo sapiens); assay: XIAP binders, primary screen, biophysical, small-molecule microarray, fluorescence 635 nm (AID 1181); settings: small-molecule microarray binding, higher = more signal;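 further: score merges 667 nm emission and signal to noise over triplicate slides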
Answer N if composite z-score is under -0.1, and Y if it is -0.1 or more.

- COC(=O)[C@@H]1CC[C@H](C)[C@@H](c2ccc(C)cc2)N1C(=O)c1ccc(C=NOC(C)CN2CCCCc3nc(C)c(C)cc32)cc1 (stereo not given in full): Y
- CCOC(=O)CCN1C(=O)[C@H]2[C@H]3[C@H](O)[C@H](O)CC(=NOC[C@@H](O)COCc4ccco4)[C@H]3CC[C@H]2C1=O: Y
- CCc1cccc(NC(=O)O[C@H]2[C@H](OC(=O)Nc3ccc4c(c3)OCO4)[C@@H](OC(=O)Nc3ccc4c(c3)OCO4)[C@@H](OC)O[C@@H]2CO)c1: N
- COC(=O)C1=C(C)N(Cc2ccccc2)[C@]23O[C@](C(=O)OC)(C(=O)N2[C@@H]1c1ccccc1)[C@H]1CCOC(=O)[C@H]13: Y
- CC(=O)OC[C@H]1O[C@H](CCON=C(C)CCC(=O)OC[C@H]2O[C@H](C#Cc3ccccc3)C=C[C@@H]2Oc2ccc(C)cc2)C=C[C@@H]1OC(C)=O: N
- C#CCCCON=C1C[C@@H](O)[C@@H](O)[C@@H]2[C@@H]3C(=O)N(CCC(=O)OCC)C(=O)[C@@H]3CC[C@@H]12: N
- CC(C)C[C@@H]1NC(=O)[C@H]2C[C@@H](C(=O)O)[C@@H](c3ccc(O)cc3)N2C1=O: N
- CO[C@H]1COC(=O)[C@H](C)NC(=O)[C@@H](C)COC(=O)CC=C[C@@H]1C: Y
- Cc1ccc(S[C@]2(C(=O)O)CC(=O)N(Cc3ccccc3)[C@@H]2c2ccc(CO)cc2I)cc1: N
- CC(CCN1CCc2nc(-c3ccccc3)c(-c3ccccc3)cc2C1)=NO[C@@H](C)c1cn([C@H](CO)Cc2ccccc2)nn1: N
- COc1cccc([C@H]2Oc3ccc(OC)cc3C(=NO[C@H](C)c3cn([C@@H]4COC[C@H]4O)nn3)[C@@H]2O)c1: Y
- CCc1cc2c(nc1CC)CCN(CCC(C)=NOC(C)CN1CCCc3nc(C)c(C)cc31)C2 (stereo not given): Y
- COc1ccc(O[C@H]2C=C[C@@H](c3ccccc3)O[C@@H]2COC(=O)CCC(C)=NO[C@H](C)c2cn([C@@H]3COC[C@H]3O)nn2)cc1: N

----------
target: Follistatin (Homo sapiens); test: follistatin binders on small-molecule microarrays, primary screen, biochemical, small-molecule microarray, 635/667 nm fluorescence (AID 1132); settings: FST binding, 635 nm fluorescence, higher = more signal
Recorded composite z-score values for a group of compounds are listed next.
quantity measured: composite z-score

- CS(=O)(=O)CCOC(=O)C1=CC(CCCO)=CC(c2cccs2)N(Cc2cccc(OC(F)(F)F)c2)C=C1C(=O)OCCS(C)(=O)=O (configuration not stated): 0.243
- O=C1C2C=CC(C(O)c3ccc([N+](=O)[O-])cc3)N(Nc3ccc([N+](=O)[O-])cc3)C2C(=O)N1c1ccccc1 (configuration not stated): -0.0127
- COc1ccc(O[C@H]2C=C[C@@H](c3ccccc3)O[C@@H]2CON=C[C@@H](C)[C@H](OCc2ccccc2)C(C)C)cc1: -0.675
- CC(C)=CCCC(C)=CCON=C1C[C@@H](O)[C@@H](O)[C@@H]2[C@@H]3C(=O)N(C[C@@H]4CCCO4)C(=O)[C@@H]3CC[C@@H]12: 1.06
- COCCCNC(=O)[C@@]1(Sc2ccc(C)cc2)CC(=O)N(Cc2ccccc2)[C@@H]1c1ccc(CO)cc1I: -0.191
- CO[C@@H]1COC(=O)CC=C[C@@H](C)[C@@H]2C=C[C@H](O)[C@@H](COC(=O)[C@H](C)NC(=O)CC=C[C@H]1C)O2: 1.11
- CC(C)(C)N1C(=O)[C@H]2[C@H]3[C@H](O)[C@H](O)CC(=NOCc4ccccc4)[C@@H]3CC[C@H]2C1=O: 0.785
